A collection of compounds and their measured Percent Effect
test system: Wolbachia pipientis; test: Anti-Wolbachia Cell-Based Screen; assay type: functional; parameters: scale not given: in the data most compounds retested in dose-response had high values; settings: 5 µM
Out of some 48,000 compounds screened, about 13,000 (27%) showed an effect of 50% or more. Some of the results follow.
Field: numeric (%). Do not append units.

Recorded Percent Effect, per entry:
{"COMPOUND": "CCc1csc(C2CCCN(C(=O)c3cnc[nH]3)C2)n1 (stereo unspecified)", "READING UNIT": "%", "Percent Effect": 106.6}
{"COMPOUND": "CCc1nc(CN2CCCN(C(=O)c3cnc[nH]3)CC2)cs1", "READING UNIT": "%", "Percent Effect": -9.99}
{"COMPOUND": "CCc1csc(C2CCCN(C(=O)c3ccc(OC)nc3)C2)n1 (stereo unspecified)", "READING UNIT": "%", "Percent Effect": 6.728}
{"COMPOUND": "CCc1csc(C2CCCN(C(=O)c3ccc(=O)n(C)n3)C2)n1 (stereo unspecified)", "READING UNIT": "%", "Percent Effect": -0.1419}
{"COMPOUND": "Cc1csc(C2CCCN(C(=O)c3cnc[nH]3)C2)n1 (stereo unspecified)", "READING UNIT": "%", "Percent Effect": -6.546}

--- query ---
Percent Effect for CCc1csc(C2CCCN(C(=O)c3ncccn3)C2)n1 (stereo unspecified) is 104
